organism: Mus musculus; assay: Percent inhibition of nitric oxide (NO) production in lipopolysaccharide activated mouse peritoneal macrophages at 100 uM of compound; assay type: functional
Form field: Inhibition (one value per entry).
parameter_measured: Inhibition (%)

INSERT INTO results (compound, readout_unit, quantitative_result) VALUES
  ('OC/C=C/c1ccc(O)cc1', '%', 24),
  ('O=C(O)/C=C/c1cccc(O)c1', '%', 3),
  ('C=C[C@H](O)c1ccc(OC(C)=O)cc1', '%', 46),
  ('COc1ccc(/C=C/C(=O)O)cc1OC [O,O''-DIMETHYLCAFFEIC ACID]', '%', 1),
  ('C=C[C@H](OC(C)=O)c1ccccc1', '%', 20),
  ('C=CCc1ccc(O)cc1 [CHAVICOL]', '%', 43),
  ('C=C[C@H](O)c1ccccc1', '%', 19),
  ('C=CC(O)c1ccccc1O (stereo not drawn)', '%', 0),
  ('C=CCc1ccc(OC)c(OC)c1 [METHYLEUGENOL]', '%', 1),
  ('C=CC(O)c1cccc(O)c1 (stereo not drawn)', '%', 1),
  ('C=CCc1ccc(O)c(OC)c1 [EUGENOL]', '%', 15),
  ('O=C(O)/C=C/c1ccc(O)c(O)c1 [CAFFEIC ACID]', '%', 15),
  ('C=CC(OC(C)=O)c1cccc(O)c1 (stereo not drawn)', '%', 25);

---

species: Mus musculus; assay: Percent inhibition of nitric oxide (NO) production in lipopolysaccharide activated mouse peritoneal macrophages at 100 uM of compound; type: functional
Form field: Inhibition (one value per entry).
parameter_measured: Inhibition

INSERT INTO measurements (compound, result) VALUES
  ('O=C(O)/C=C/c1ccccc1O [O-COUMARIC ACID]', '7%'),
  ('C=CC(OC)c1ccc(OC)cc1 (stereo not drawn)', '22%'),
  ('COc1cc(/C=C/C(=O)O)cc(OC)c1O [SINAPINATE]', '27%'),
  ('CCC(O)c1ccc(O)cc1 (stereo not drawn)', '11%'),
  ('C=CCc1ccc(O[C@@H]2O[C@H](CO)[C@@H](O)[C@H](O)[C@H]2O)cc1', '6%'),
  ('C=CC(OC(C)=O)c1cccc(OC(C)=O)c1 (stereo not drawn)', '20%'),
  ('C=CC(O)c1ccc(OC)cc1 (stereo not drawn)', '-3%'),
  ('CC[C@H](OC(C)=O)c1ccccc1', '25%'),
  ('C=CCC(O)c1ccc(O)cc1 (stereo not drawn)', '13%'),
  ('CC[C@H](O)c1ccccc1', '-4%'),
  ('COc1ccc(/C=C/C(=O)O)cc1 [4-METHOXYCINNAMIC ACID]', '27%'),
  ('C=CC(O)c1ccc(O)cc1 (stereo not drawn)', '-1%'),
  ('O=C(O)/C=C/c1ccccc1 [CINNAMIC ACID]', '15%');

---

Form field: log10(IC50) (one value per entry).
organism: Mus musculus; experiment: Inhibitory concentration of compound on nitric oxide (NO) production in lipopolysaccharide activated mouse peritoneal macrophages; type: functional; conditions: read-out: IC50
parameter_measured: log10(IC50) (log10 of the value in µM)

INSERT INTO measurements (compound, quantitative_result) VALUES
  ('C=CC(OC(C)=O)c1ccccc1OC(C)=O (stereo not drawn)', 0.51),
  ('CCC(=O)Oc1ccc(C(CC)OC(=O)CC)cc1 (stereo not drawn)', 1.77),
  ('C=CCc1ccc(O)c(O)c1 [HYDROXYCHAVICOL]', 1.18),
  ('CCCC(OC(C)=O)c1ccc(OC(C)=O)cc1 (stereo not drawn)', 1.67),
  ('C=CCC(OC(C)=O)c1ccc(OC(C)=O)cc1 (stereo not drawn)', 0.96),
  ('C=CC(OC(C)=O)c1ccc(OC(C)=O)cc1 (stereo not drawn)', 0.69);
